Assay: NCI Yeast Anticancer Drug Screen. Data for the CLN2oe strain (AID 163);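 also: 0% = growth of vehicle-only control cultures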
Conditions: S. cerevisiae CLN2oe strain, at 1.2 µM, stronger effect = higher value
Compounds without any hit were thinned out: in the full panel of roughly 79,000, 15% have a hit.
measured.attribute: growth inhibition (%)
Respond numerically; units are % and should not be typed.

# compound, growth inhibition (%)
records = [
    ("Oc1[nH]c2ccccc2c1N=NC(=S)N1CCCCC1", 2),
]

growth inhibition for C[C@@](O)(/C=C/[C@H]1CC=CC(=O)O1)[C@@H](C[C@@H](O)\C=C/C=C\C=C\CO)OP(=O)(O)O is 46

The measured growth inhibition associated with S=c1[nH]c2cc3ccccc3cc2[nH]1 reads -13

growth inhibition in this record for CC(C)c1ccc(NC(=S)NC(=O)c2ccccc2)cc1 : -21

The recorded growth inhibition for CCc1ccc2c(c1)N(CC(C)CN(C)C)c1ccccc1S2 (centres undefined) is -9

Briefly, growth inhibition measured for CCCCNC1CCC2(SCCS2)c2[nH]c3ccccc3c21 (centres undefined) : 10
